Sourced from patent US8114968

A collection of binders and their measured koff
- subject of test: T1, murine MMP-12 (mouse, UniProt P34960 110-473, limits assumed)
- T1 construct: also called mouse MMP12; mMMP12
- protocol description: BIACORE, coated Fab
Give the value, in units of s⁻¹, as a plain number.

binder	value reported
539B-M0063-G01 (Fab, V domains shown) VH: EVQLLESGGGLVQPGGSLRLSCAASGFTFSWYWMVWVRQAPGKGLEWVSSIGPSGGDTYYADSVKGRFTISRDNSKNTLYLQMNSLRAEDTAVYYCAKDIRGAYSSGLFDYWGRGTLVTVSS VL: DIQMTQSPSSLSASVGDRVTITCRANQSIYTYLNWYQQKPGKAPELLIYAASSLQSGVPSRFSGSGSGTDFTLTISSLQPEDFATYYCQQAGIFGQGTKLEIK	0.00654
539B-M0063-B01 (Fab, V domains shown) VH: EVQLLESGGGLVQPGGSLRLSCAASGFTFSWYWMGWVRQAPGKGLEWVSSISPSGGYTFYADSVKGRFTISRDNSKNTLYLQMNSLRAEDTAVYYCAKDIRGAYSSGLFDYWGRGTLVTVSS VL: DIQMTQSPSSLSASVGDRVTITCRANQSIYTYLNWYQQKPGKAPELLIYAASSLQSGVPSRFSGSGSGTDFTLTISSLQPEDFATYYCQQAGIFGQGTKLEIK	0.0025

Fill blank: measured koff of the binder 539B-M0063-B11 (Fab, V domains shown) VH: EVQLLESGGGLVQPGGSLRLSCAASGFTFSPYWMHWVRQAPGKGLEWVSGIGPSGGLTFYADSVKGRFTISRDNSKNTLYLQMNSLRAEDTAVYYCAKDIRGAYSSGLFDYWGRGTLVTVSS VL: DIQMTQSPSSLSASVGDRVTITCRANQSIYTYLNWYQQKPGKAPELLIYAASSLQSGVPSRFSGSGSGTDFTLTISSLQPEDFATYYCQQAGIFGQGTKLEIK is ____. 0.00311

Param item = 539B-M0008-H09 Fab (Fab, V domains shown, N-glycosylation site in LC CDR1; also called M08H09) VH: EVQLLESGGGLVQPGGSLRLSCAASGFTFSDYNMHWVRQAPGKGLEWVSYIGPSGGYTHYADSVKGRFTISRDNSKNTLYLQMNSLRAEDTAVYYCAKDIRGAYSSGLFDYWGRGTLVTVSS VL: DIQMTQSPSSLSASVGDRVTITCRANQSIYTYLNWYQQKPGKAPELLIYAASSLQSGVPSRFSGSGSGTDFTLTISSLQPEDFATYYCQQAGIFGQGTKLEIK ; retrieve measured koff. 0.004

Dear colleague, I am looking for the recorded koff of the following binder: 539B-M0067-F06 (Fab, V domains shown) VH: EVQLLESGGGLVQPGGSLRLSCAASGFTFSWYNMSWVRQAPGKGLEWVSRISPSGGDTGYADSVKGRFTISRDNSKNTLYLQMNSLRAEDTAVYYCAKDIRGAYSSGLFDYWGRGTLVTVSS VL: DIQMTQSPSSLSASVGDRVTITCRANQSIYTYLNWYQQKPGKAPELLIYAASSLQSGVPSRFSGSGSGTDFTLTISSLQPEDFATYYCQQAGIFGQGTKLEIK 0.00025

Field request: koff | item: 539B-M0071-A01 (Fab, V domains shown) VH: EVQLLESGGGLVQPGGSLRLSCAASGFTFSEYWMTWVRQAPGKGLEWVSGISPSGGMTFYADSVKGRFTISRDNSKNTLYLQMNSLRAEDTAVYYCAKDIRGAYSSGLFDYWGRGTLVTVSS VL: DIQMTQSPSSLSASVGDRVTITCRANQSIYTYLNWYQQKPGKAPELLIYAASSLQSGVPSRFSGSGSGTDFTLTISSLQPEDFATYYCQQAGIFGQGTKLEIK 0.01

Given the binder 539B-M0063-C07 (Fab, V domains shown) VH: EVQLLESGGGLVQPGGSLRLSCAASGFTFSPYWMSWVRQAPGKGLEWVSGISPSGGITFYADSVKGRFTISRDNSKNTLYLQMNSLRAEDTAVYYCAKDIRGAYSSGLFDYWGRGTLVTVSS VL: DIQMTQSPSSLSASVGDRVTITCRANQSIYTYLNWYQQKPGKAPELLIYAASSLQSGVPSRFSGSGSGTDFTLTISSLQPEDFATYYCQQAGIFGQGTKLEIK , what is its reported koff? 0.002
